The entries below are paired with their reported pIC50.
# target.of.assay: Peptidyl-prolyl cis-trans isomerase NIMA-interacting 1 (Homo sapiens)
# Sequence (Q13526 whole entry): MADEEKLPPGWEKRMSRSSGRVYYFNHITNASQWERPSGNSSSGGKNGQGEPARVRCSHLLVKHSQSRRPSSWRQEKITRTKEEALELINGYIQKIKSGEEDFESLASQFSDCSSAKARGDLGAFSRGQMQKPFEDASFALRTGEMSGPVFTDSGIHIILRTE
# method.notes: Inhibition of His-tagged PIN1 (unknown origin) TAMRA labelled Bth-D-pThr-Pip-L-2Nal as substrate incubated for 30 mins by fluorescence polarization analysis
pIC50: −log10 of the molar value.

// solved cases for pIC50 follow
>  <compound>
CNC(=O)C(Cc1cn(-c2ccc(-c3ccc(C#N)cc3)cc2)nn1)NC(=O)C1(c2ccccc2)CCC1 (stereo not drawn)

>  <pIC50>
< 4.00

$$$$
>  <compound>
CNC(=O)C(Cc1cn(-c2ccc(-c3ccc(C#N)cc3)cc2)nn1)NC(=O)Cc1ccccc1 (stereo not drawn)

>  <pIC50>
< 4.00

$$$$
>  <compound>
CNC(=O)C(Cc1cn(-c2ccc(C3CCN(C)CC3)cc2)nn1)NC(=O)C1(c2ccccc2)CC1 (stereo not drawn)

>  <pIC50>
< 4.00

$$$$
>  <compound>
CNC(=O)C(Cc1cn(-c2ccn(C)n2)nn1)NC(=O)C1(c2ccccc2)CC1 (stereo not drawn)

>  <pIC50>
< 5.00

$$$$
>  <compound>
CNC(=O)C(Cc1cn(-c2ccc(-c3ccc(C#N)cc3)cc2)nn1)NC(=O)C1(c2ncccc2C)CC1 (stereo not drawn)

>  <pIC50>
6.44

$$$$

Q: Using the record for CNC(=O)C(Cc1cn(Cc2cc3ccccc3s2)nn1)NC(=O)C1(c2ccccc2)CC1 (stereo not drawn) , report its pIC50.
Result: < 4.00

Q: Using the record for CNC(=O)C(Cc1cn(-c2ccc(-c3ccc(C#N)cc3)cc2)nn1)NC(=O)C1(c2ccccc2)CCCCC1 (stereo not drawn) , report its pIC50.
Result: < 4.00

Q: Using the record for CNC(=O)C(Cc1cn(-c2ccc(-c3ccc(C#N)cc3)cc2)nn1)NC(=O)C1(c2ccccc2)CCCC1 (stereo not drawn) , report its pIC50.
Result: < 4.00

###

The entries below are paired with their reported Papp A→B at 2 h.
# method.notes: Permeability across apical to basolateral side in MDCK cells incubated for 120 mins by LC-MS/MS analysis
# assay.setup: dog
# value in ×10⁻⁶ cm/s; strip the unit string

>  <compound>
Cc1ccccc1C1(C(=O)NC(Cc2cn(-c3ccc(-c4ccc(C#N)cc4)cc3)nn2)C(=O)NC2CCN(C)CC2)CC1 (configuration not stated)

>  <Papp A→B at 2 h / ×10⁻⁶ cm/s>
0.01

$$$$

Kindly review the next compound as well.
Q: Using the record for CNC(=O)/C(=C\c1cn(-c2ccc(-c3ccc(C#N)cc3)cc2)nn1)NC(=O)C1(c2ccccc2C)CC1 , report its Papp A→B at 2 h.
Result: 0.78

###

# target.of.assay: Peptidyl-prolyl cis-trans isomerase NIMA-interacting 1 (Homo sapiens)
# method.notes: Inhibition of His-tagged PIN1 (unknown origin) TAMRA labelled Bth-D-pThr-Pip-L-2Nal as substrate incubated for 30 mins by fluorescence polarization analysis
assay.endpoint: IC50 (µM)
# value in µM; strip the unit string

Q: Using the record for CNC(=O)/C(=C\c1cn(-c2ccc(-c3ccc(C#N)cc3)cc2)nn1)NC(=O)C1(c2ccccc2C)CC1 , report its IC50.
Result: 0.25

Q: Using the record for CNC(=O)C(Cc1cn(-c2ccc(-c3ccc(C#N)cc3)cc2)nn1)NC(=O)C(C)(C)c1ccccc1 (stereo not drawn) , report its IC50.
Result: 2.09

Source listed as ChEMBL document CHEMBL5584361.
